Values from PubChem BioAssay (EPA / NIEHS)

Experiment: ATG_BRE_CIS: Attagene CIS-FACTORIAL HepG2 Assay for human Bone Morphogenetic Protein (BMP) Response Element (BRE) (AID 2282933)
Conditions: HepG2 BMP response element reporter, Attagene transcription factor profiling; actives raise or lower the signal
Active and inactive are the calls of the source. How the source made its calls: active means hit-call score of the fitted dose curve at least 0.9, where 1 is the maximum; inactive means score below 0.9.
measuredProperty: AC50

The cases that follow already have their AC50 on record.
| compound | AC50 |
| --- | --- |
| O=C(O)C(c1ccc(Cl)cc1)c1ccc(Cl)cc1 | inactive |
| NC(=O)C1CO1 (stereo not given) | inactive |
| Cc1cccc(OCCOc2cccc(C)c2)c1 | inactive |
| O=C(Nc1ccccc1)c1ccccc1O | 30.7 µM (active) |
| CC(=O)[C@H]1[C@H](C#N)C[C@H]2[C@@H]3CC=C4C[C@@H](O)CC[C@]4(C)[C@H]3CC[C@@]21C | inactive |
| CCCOC(=O)CCCCC(=O)OCCC | inactive |
| CC(C)c1ccc(C=O)cc1 | inactive |
| O=C1CCCC(=O)O1 | inactive |

## Input Give its AC50 value. Item: CCC(C)(C)C1CCCCC1OC(C)=O (stereo not given)
## Output inactive

## Input Give its AC50 value. Item: C=CC(=O)NC(C)(C)CS(=O)(=O)O
## Output 15.8 µM (active)

----------
Experiment: BSK_3C_SRB: Viability Assessment in the BioMAP Diversity Plus: 3C Assay (AID 2283023);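 further: cells read 24 h after compound dosing; fitted both ways against DMSO so a hit may be signal rise or drop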
Details: primary human endothelial cells (HUVEC)
Active and inactive are the calls of the source. The calls were made as follows: active = hit-call score of the fitted dose curve at least 0.9, where 1 is the maximum; inactive = score below 0.9.
Output constraint: value belongs to active, inactive

Here's what some known entries look like.
| compound | class |
| --- | --- |
| O=C(Cl)c1cc(C(=O)Cl)cc(C(=O)Cl)c1 | active |
| O=C(c1ccc(O)cc1)c1ccc(O)cc1O | inactive |
| C=CC(=O)OCC(Br)CBr (stereo unspecified) | active |
| CCCCC(CC)COC(=O)c1ccccc1O (stereo unspecified) | active |
| CCO[Si](CCCN=C=O)(OCC)OCC | inactive |

With those in mind, consider the next compound.
## Input Look up the recorded call for CCOc1nc(F)cc2nc(S(=O)(=O)Nc3c(Cl)cccc3C(=O)OC)nn12 in this test.
## Output inactive

----------
Read-out: Monokine induced gamma interferon (MIG), CXCL9 (gene 4283)
Assay: BSK_CASM3C_MIG: BioMAP Diversity Plus: CASM3C Assay for Monokine induced gamma interferon (MIG) Biomarker Activity (AID 2283048);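 further: MIG protein level measured by ELISA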
Details: primary human coronary artery smooth muscle cells; actives raise or lower the signal
Calls of active or inactive are those of the source. The calls were made as follows: active = hit-call score of the fitted dose curve at least 0.9, where 1 is the maximum; inactive = score below 0.9.
Output constraint: value belongs to active, inactive

Here's what some known entries look like.
| chemicalSmiles | class |
| --- | --- |
| C=C[Si](OC(C)=O)(OC(C)=O)OC(C)=O | inactive |
| CCO[Si](CCCN=C=O)(OCC)OCC | inactive |

## Input Look up the recorded call for CCCCNc1ccc(NCCCC)c2c1C(=O)c1ccccc1C2=O in this test.
## Output inactive

## Input Look up the recorded call for CCCCC/C=C\C/C=C\CCCCCCCC(=O)OC in this test.
## Output active

## Input Look up the recorded call for c1ccc(-c2ccccn2)nc1 in this test.
## Output inactive

----------
Target: Oxysterols receptor LXR-alpha (Homo sapiens)
Test: ATG_LXRa_TRANS: Attagene TRANS-FACTORIAL HepG2 Assay for human Liver X Receptor alpha (LXRa) (AID 2282980)
Conditions: HepG2 Attagene TRANS reporter, LXRa transactivation
Inconclusive results are not listed. Active and inactive are the calls of the source. How the source made its calls: active means hit-call score of the fitted dose curve at least 0.9, where 1 is the maximum; inconclusive means response in the unintended direction; inactive means score below 0.9.
Output constraint: value belongs to active, inactive

| molecule | studySystem | class |
| --- | --- | --- |
| CCCCCCCCCCCCCCCCCC#N | Oxysterols receptor LXR-alpha (Homo sapiens) | inactive |
| CC(C)C1=CC2=CC[C@@H]3[C@](C)(CCC[C@@]3(C)C(=O)O)[C@H]2CC1 | Oxysterols receptor LXR-alpha (Homo sapiens) | active |

## Input Look up the recorded call for CCOC(F)(F)C(F)(F)C(F)(F)C(F)(F)F in this test.
## Output inactive

## Input Look up the recorded call for C1=Cc2ccccc2C1 in this test.
## Output inactive

## Input Look up the recorded call for CC(=O)OC1C2(C)CCC(C2)C1(C)C (stereo not drawn) in this test.
## Output inactive

## Input Look up the recorded call for C[Si](C)(C)O[Si](O)(O)O in this test.
## Output inactive

## Input Look up the recorded call for c1ccc2c(c1)ccc1cc3c(ccc4ccccc43)cc12 in this test.
## Output inactive
